B1: ESRRA (parent)
chain: SLPLQDELAFAEDLVLDEEGARAA

Variants of: B1
Assay: protein stability index of a GFP-peptide fusion (GPS, HEK-293T) (PSI 1-6); higher = more stable;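 also: lentivirally expressed fusions sorted by FACS into six bins by GFP to DsRed ratio, PSI derived from sequencing read proportions per bin multiplied by bin number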
Settings: c terminus: a fixed tail appended
Measured Parameter: protein stability index
Output: the number by itself.

Dear colleague, I am looking for the recorded protein stability index of the following variant: G20T
4.05

Reported protein stability index, variant A21S : ____
4.05

Any idea what protein stability index was measured for L2Q ?
3.95

Source listed as the supplement of paper PMC10567573.
